# assay-system: HIF-PH2 (EGLN1) (Homo sapiens)
# Construct: made in house; host or cells: insect Hi5 cells
# Sequence (Q9GZT9 whole entry, species assumed): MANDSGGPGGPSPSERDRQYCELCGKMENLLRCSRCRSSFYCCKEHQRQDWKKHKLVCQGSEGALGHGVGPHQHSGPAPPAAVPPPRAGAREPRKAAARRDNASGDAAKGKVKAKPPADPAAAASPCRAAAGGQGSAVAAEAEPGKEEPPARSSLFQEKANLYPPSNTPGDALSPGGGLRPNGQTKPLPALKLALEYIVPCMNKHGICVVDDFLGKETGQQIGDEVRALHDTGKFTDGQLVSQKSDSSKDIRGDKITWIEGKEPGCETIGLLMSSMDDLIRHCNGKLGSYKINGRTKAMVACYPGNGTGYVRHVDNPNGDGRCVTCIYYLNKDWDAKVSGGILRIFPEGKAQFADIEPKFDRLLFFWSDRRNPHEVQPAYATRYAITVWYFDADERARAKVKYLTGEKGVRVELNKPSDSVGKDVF
# run-description: HIF-PH assay (14CO2 capture, peptide-dependent turnover)
# Assay type: biochemical
# test-parameters: Concentration 67 μM
test-readout: inhibition at 67 µM (%)
Kindly provide the numeric value in % only, without the unit symbol.

// below: answered compounds
| smiles-notation | inhibition at 67 µM (%) |
| --- | --- |
| CC[C@H](NC(=O)c1c(O)c2cc(Cl)cn2n(Cc2ccc(OC)cc2)c1=O)C(=O)O | 88 |
| COc1ccc(Cn2c(=O)c(C(=O)NCC(=O)O)c(O)c3cc(Cl)cn32)cc1 | 100 |
| O=C(O)CNC(=O)c1c(O)c2cc(Cl)cn2n(Cc2ccc(Cl)cc2)c1=O | 100 |
| C[C@H](NC(=O)c1c(O)c2cc(Cl)cn2n(Cc2ccc(F)cc2)c1=O)C(=O)O | 95 |
| COc1ccc(Cn2c(=O)c(C(=O)N[C@@H](C)C(=O)O)c(O)c3cc(Cl)cn32)cc1 | 97 |
| C[C@H](NC(=O)c1c(O)c2cc(Cl)cn2n(Cc2ccc(Cl)cc2)c1=O)C(=O)O | 100 |

Query (compound): `CC[C@H](NC(=O)c1c(O)c2cc(Cl)cn2n(Cc2ccc(Cl)cc2)c1=O)C(=O)O` ; field requested: inhibition at 67 µM
94

Hey, just so you know, these numbers are from patent US8217043B2.
